Species: Homo sapiens
EXPERIMENT_DESCRIPTION: Selectivity ratio of IC50 for human recombinant AChE to IC50 for human recombinant BuChE

COMPOUND | Ratio IC50
C#CCN(CCCC1CCN(Cc2ccccc2)CC1)Cc1ccc2cccc(O)c2n1 | 65
C#CCN(Cc1ccc2cccc(O)c2n1)C(C#N)CCC1CCN(Cc2ccccc2)CC1 (stereo unspecified) | 0.7
C#CCN(Cc1ccc2cccc(O)c2n1)C(C#N)C1CCN(Cc2ccccc2)CC1 (stereo unspecified) | 2140
C#CCN(Cc1ccc2cccc(O)c2n1)CC1CCN(Cc2ccccc2)CC1 | 152
C#CCN(Cc1ccc2cccc(O)c2n1)C(C#N)CC1CCN(Cc2ccccc2)CC1 (stereo unspecified) | 1650
C#CCN(CCC1CCN(Cc2ccccc2)CC1)Cc1ccc2cccc(O)c2n1 | 52
